Conditions: human gut metagenome, 24 h, 2 µM; also: call rule not given here
experimental_readout: Bacterial Biotransformation

compound=Cc1ccc(-c2nc3ccc(C)cn3c2CC(=O)N(C)C)cc1 reported="Compound NOT metabolized"
compound=CC(C)(C#N)c1cc(Cn2cncn2)cc(C(C)(C)C#N)c1 reported="Compound metabolized"
compound=CCCc1nc(C(C)(C)O)c(C(=O)OCc2oc(=O)oc2C)n1Cc1ccc(-c2ccccc2-c2nnn[nH]2)cc1 reported="Compound metabolized"
compound=CN1C(C(=O)Nc2ccccn2)=C(O)c2sccc2S1(=O)=O reported="Compound NOT metabolized"
compound="CCCc1nn(C)c2c(=O)[nH]c(-c3cc(S(=O)(=O)N4CCN(C)CC4)ccc3OCC)nc12.O=C(O)CC(O)(CC(=O)O)C(=O)O [SILDENAFIL CITRATE]" reported="Compound NOT metabolized"
compound=CN1CCN(CC/C=C2/c3ccccc3Sc3ccc(S(=O)(=O)N(C)C)cc32)CC1 reported="Compound metabolized"
compound=CCCCC1=NC2(CCCC2)C(=O)N1Cc1ccc(-c2ccccc2-c2nnn[nH]2)cc1 reported="Compound metabolized"
compound="CC(C)NCC(O)COc1ccc(COCCOC(C)C)cc1.CC(C)NCC(O)COc1ccc(COCCOC(C)C)cc1.O=C(O)/C=C/C(=O)O (stereo unspecified) [BISOPROLOL FUMARATE]" reported="Compound NOT metabolized"
compound="CN(C)C(=O)C(CCN1CCC(O)(c2ccc(Cl)cc2)CC1)(c1ccccc1)c1ccccc1 [LOPERAMIDE]" reported="Compound metabolized"
compound=O=c1[nH]c2ccccc2n1CCCN1CCC(n2c(=O)[nH]c3cc(Cl)ccc32)CC1 reported="Compound NOT metabolized"
compound=CNC(=C[N+](=O)[O-])NCCSCc1ccc(CN(C)C)o1 reported="Compound NOT metabolized"
compound=COC(=O)[C@H]1[C@H]2C[C@@H]3c4[nH]c5cc(OC)ccc5c4CCN3C[C@H]2C[C@@H](OC(=O)c2cc(OC)c(OC)c(OC)c2)[C@@H]1OC reported="Compound metabolized"
compound=CN1CC(=O)N2[C@H](c3ccc4c(c3)OCO4)c3[nH]c4ccccc4c3C[C@@H]2C1=O reported="Compound metabolized"
compound="Cc1nc2n(c(=O)c1CCN1CCC(c3noc4cc(F)ccc34)CC1)CCCC2O (stereo unspecified)" reported="Compound metabolized"
compound=Nc1ccc(/N=N/c2ccccc2)c(N)n1 reported="Compound metabolized"
compound="CN1CCC(=C2c3ccccc3CCc3cccnc32)CC1.O=C(O)/C=C\\C(=O)O.O=C(O)/C=C\\C(=O)O [AZATADINE MALEATE]" reported="Compound NOT metabolized"

* * *

Test: The drug is tested on WLS-007 corresponding to human gut metagenome with ENA study accession number: PRJEB37062 and ENA sample accession number: ERS12561742 for biotransformation under anaerobic condition. The drug concentrations were measured over 9 timepoints collected between 0 and 24 hours of incubation by liquid-chromatography-coupled mass spectrometry (LC–MS)
Details: 2 µM
experimental_readout: Bacterial Biotransformation

compound=O=C(CCCN1CCC(O)(c2ccc(Cl)cc2)CC1)c1ccc(F)cc1 experimental_readout="Bacterial Biotransformation" reported="Compound NOT metabolized"
compound="OC(CCN1CCCCC1)(c1ccccc1)C1CCCCC1 (centres undefined)" experimental_readout="Bacterial Biotransformation" reported="Compound metabolized"
compound="CC(O)(CS(=O)(=O)c1ccc(F)cc1)C(=O)Nc1ccc(C#N)c(C(F)(F)F)c1 (centres undefined) [BICALUTAMIDE]" experimental_readout="Bacterial Biotransformation" reported="Compound NOT metabolized"
compound=OCCN1CCN(CCCN2c3ccccc3Sc3ccc(C(F)(F)F)cc32)CC1 experimental_readout="Bacterial Biotransformation" reported="Compound NOT metabolized"
compound="CC(CN(C)C)CN1c2ccccc2CCc2ccccc21.O=C(O)/C=C\\C(=O)O (centres undefined) [TRIMIPRAMINE MALEATE]" experimental_readout="Bacterial Biotransformation" reported="Compound metabolized"
compound="NS(=O)(=O)c1cc2c(cc1Cl)N=C(CSCc1ccccc1)NS2(=O)=O [BENZTHIAZIDE]" experimental_readout="Bacterial Biotransformation" reported="Compound NOT metabolized"
compound=Cc1nc(-c2ccc(OCC(C)C)c(C#N)c2)sc1C(=O)O experimental_readout="Bacterial Biotransformation" reported="Compound NOT metabolized"
compound="O=C(NCc1ccccc1)OCCO [BURAMATE]" experimental_readout="Bacterial Biotransformation" reported="Compound NOT metabolized"
compound=COC(=O)Nc1nc2ccc(C(=O)c3ccccc3)cc2[nH]1 experimental_readout="Bacterial Biotransformation" reported="Compound metabolized"
